ASSAY_SYSTEM: MLLT1 (Homo sapiens, UniProt Q03111)
Construct: endogenous in cells; host or cells: MV4-11 (ATCC CRL-9591)
Sequence (Q03111 1-559): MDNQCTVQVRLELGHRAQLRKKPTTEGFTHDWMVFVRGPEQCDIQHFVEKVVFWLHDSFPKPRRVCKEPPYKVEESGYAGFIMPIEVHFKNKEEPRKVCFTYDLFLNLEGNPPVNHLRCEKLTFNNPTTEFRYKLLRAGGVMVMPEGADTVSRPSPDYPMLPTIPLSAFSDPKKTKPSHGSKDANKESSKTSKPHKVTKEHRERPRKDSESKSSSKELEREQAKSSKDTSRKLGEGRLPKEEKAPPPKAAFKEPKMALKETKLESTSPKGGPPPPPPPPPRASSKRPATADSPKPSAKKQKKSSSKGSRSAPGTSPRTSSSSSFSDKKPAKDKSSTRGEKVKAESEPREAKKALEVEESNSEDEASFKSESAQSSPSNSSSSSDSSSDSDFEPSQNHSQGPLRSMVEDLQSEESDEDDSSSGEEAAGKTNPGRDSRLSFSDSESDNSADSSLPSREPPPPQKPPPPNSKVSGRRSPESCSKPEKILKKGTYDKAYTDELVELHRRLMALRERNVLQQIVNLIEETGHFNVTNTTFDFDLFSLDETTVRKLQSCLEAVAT
EXPERIMENT_SUMMARY: MLLT1 degradation assay (JESS automated chemiluminescent detection) in MV4-11 cells
Assay type: cell-based
EXPERIMENTAL_SETUP: 0.1 µM, 24h, with respect to DMSO control
RESULT_TYPE: inhibition at 0.1 µM

// solved cases for inhibition at 0.1 µM follow
COMPOUND: Cc1c2ccc(C(=O)Nc3cc4[nH]c([C@H]5CCCN5C)cc4cn3)cc2nn1CCCCCCCCNc1cccc2c1C(=O)N(C1CCC(=O)NC1=O)C2=O (stereo partly drawn) [Example 5]
RESULT_TYPE: inhibition at 0.1 µM
MEASUREMENT: 50 to 75%
//
COMPOUND: Cc1nn(CC#Cc2cccc3c2CN(C2CCC(=O)NC2=O)C3=O)c2cc(C(=O)Nc3cc4[nH]c([C@H]5CCCN5C)cc4cn3)ccc12 (stereo partly drawn) [Example 72]
RESULT_TYPE: inhibition at 0.1 µM
MEASUREMENT: ≥ 75%
//
COMPOUND: Cc1nn(CCCCCC#Cc2cccc3c2CN(C2CCC(=O)NC2=O)C3=O)c2cc(C(=O)Nc3cc4[nH]c([C@H]5CCCN5C)cc4cn3)ccc12 (stereo partly drawn) [Example 30]
RESULT_TYPE: inhibition at 0.1 µM
MEASUREMENT: ≥ 75%
//
COMPOUND: Cc1nn(CCCC2CCN(c3ccc(C(=O)NC4CCC(=O)NC4=O)cc3F)CC2)c2cc(C(=O)Nc3cc4[nH]c([C@H]5CCCN5C)cc4cn3)ccc12 (stereo partly drawn) [Example 28]
RESULT_TYPE: inhibition at 0.1 µM
MEASUREMENT: 25 to 50%
//
COMPOUND: Cc1nn(CCCCNc2cccc3c2C(=O)N(C2CCC(=O)NC2=O)C3=O)c2cc(C(=O)Nc3cc4[nH]c([C@H]5CCCN5C)cc4cn3)ccc12 (stereo partly drawn) [Example 21]
RESULT_TYPE: inhibition at 0.1 µM
MEASUREMENT: ≥ 75%
//
COMPOUND: Cc1nn(CCCCCCCC#Cc2ccc(C(=O)N[C@H]3CCC(=O)NC3=O)nc2)c2cc(C(=O)Nc3cc4[nH]c([C@H]5CCCN5C)cc4cn3)ccc12 [Example 41]
RESULT_TYPE: inhibition at 0.1 µM
MEASUREMENT: 25 to 50%
//
COMPOUND: CN1CCC[C@@H]1c1cc2cnc(NC(=O)c3ccc4c(cnn4CCCCCCCC#Cc4cccc5c4CN(C4CCC(=O)NC4=O)C5=O)c3)cc2[nH]1 (stereo partly drawn) [Example 38]
RESULT_TYPE: inhibition at 0.1 µM
MEASUREMENT: ≥ 75%
//
COMPOUND: Cc1nn(CCOCCCCC#Cc2cccc3c2CN(C2CCC(=O)NC2=O)C3=O)c2cc(C(=O)Nc3cc4[nH]c([C@H]5CCCN5C)cc4cn3)ccc12 (stereo partly drawn) [Example 50]
RESULT_TYPE: inhibition at 0.1 µM
MEASUREMENT: ≥ 75%
//
COMPOUND: Cc1c([C@H]2CCCN2C)[nH]c2cc(NC(=O)c3ccc4c(C)nn(CCCCCCCC#Cc5cccc6c5CN(C5CCC(=O)NC5=O)C6=O)c4c3)ncc12 (stereo partly drawn) [Example 57]
RESULT_TYPE: inhibition at 0.1 µM
MEASUREMENT: ≥ 75%
//
COMPOUND: Cc1nn(CCCCCCCCNc2cccc3c2C(=O)N(C2CCC(=O)NC2=O)C3=O)c2cc(C(=O)Nc3cc4[nH]c([C@H]5CCCN5C)cc4cn3)ccc12 (stereo partly drawn) [Example 3]
RESULT_TYPE: inhibition at 0.1 µM
MEASUREMENT: ≥ 75%

Inquiry: Which inhibition at 0.1 µM is reported for this compound? [2H]C([2H])([2H])N1CCC[C@@H]1c1cc2cnc(NC(=O)c3ccc4c(C)nn(CCCCCCCC#Cc5cccc6c5CN(C5CCC(=O)NC5=O)C6=O)c4c3)cc2[nH]1 (stereo partly drawn) [Example 44]
Reply text: ≥ 75%

Inquiry: Which inhibition at 0.1 µM is reported for this compound? Cc1nn(CCCCCCC#Cc2cccc3c2CN(C2CCC(=O)NC2=O)C3=O)c2cc(C(=O)Nc3cc4[nH]c([C@H]5CCCN5C)cc4cn3)ccc12 (stereo partly drawn) [Example 45]
Reply text: ≥ 75%

---

ASSAY_SYSTEM: MLLT1 (Homo sapiens)
Construct: endogenous in cells; host or cells: MV4-11 (ATCC CRL-9591)
EXPERIMENT_SUMMARY: MLLT1 degradation assay (JESS automated chemiluminescent detection) in MV4-11 cells
Type: cell-based
EXPERIMENTAL_SETUP: 0.1 µM, 24h, with respect to DMSO control
RESULT_TYPE: inhibition at 0.1 µM

COMPOUND: Cc1nn(CCCCCCCC#Cc2ccnc(C(=O)N[C@H]3CCC(=O)NC3=O)c2)c2cc(C(=O)Nc3cc4[nH]c([C@H]5CCCN5C)cc4cn3)ccc12
MEASUREMENT: 50 to 75%
//
COMPOUND: Cc1nn(CCCCCCCC#Cc2cccc3c2CN(C2CCC(=O)NC2=O)C3=O)c2cc(C(=O)Nc3cc4[nH]c([C@H]5CCCN5C)c(Cl)c4cn3)ccc12 (stereo partly shown)
MEASUREMENT: ≥ 75%
//
COMPOUND: Cc1nn(CCCCCN2CCN(c3cccc4c3C(=O)N(C3CCC(=O)NC3=O)C4=O)CC2)c2cc(C(=O)Nc3cc4[nH]c([C@H]5CCCN5C)cc4cn3)ccc12 (stereo partly shown)
MEASUREMENT: < 25%
//
COMPOUND: Cc1nn(CCOCCN2CCN(c3cc4c(cc3F)C(=O)N(C3CCC(=O)NC3=O)C4=O)CC2)c2cc(C(=O)Nc3cc4[nH]c([C@H]5CCCN5C)cc4cn3)ccc12 (stereo partly shown)
MEASUREMENT: 50 to 75%
//
COMPOUND: Cc1nn(CCCCCCCCNc2ccc3c(c2)C(=O)N(C2CCC(=O)NC2=O)C3=O)c2cc(C(=O)Nc3cc4[nH]c([C@@H]5CCCN5C)cc4cn3)ccc12 (stereo partly shown)
MEASUREMENT: ≥ 75%

Inquiry: Which inhibition at 0.1 µM is reported for this compound? Cc1nn(CCCCCC#Cc2cccc3c2n(C)c(=O)n3C2CCC(=O)NC2=O)c2cc(C(=O)Nc3cc4[nH]c([C@H]5CCCN5C)cc4cn3)ccc12 (stereo partly shown)
Reply text: 50 to 75%

Inquiry: Which inhibition at 0.1 µM is reported for this compound? CN1CCC[C@@H]1c1cc2cnc(NC(=O)c3ccc4c(cnn4CCCCCCCCNc4cccc5c4C(=O)N(C4CCC(=O)NC4=O)C5=O)c3)cc2[nH]1 (stereo partly shown)
Reply text: ≥ 75%

Inquiry: Which inhibition at 0.1 µM is reported for this compound? Cc1nn(CCCCCCCCNc2cccc3c2CN(C2CCC(=O)NC2=O)C3=O)c2cc(C(=O)Nc3cc4[nH]c([C@H]5CCCN5C)cc4cn3)ccc12 (stereo partly shown)
Reply text: ≥ 75%

Inquiry: Which inhibition at 0.1 µM is reported for this compound? Cc1nn(CCCCCCCC#Cc2cccc3c2CN(C2CCC(=O)NC2=O)C3=O)c2cc(C(=O)Nc3cc4[nH]c([C@H]5CC6(CC6)CN5C)cc4cn3)ccc12 (stereo in doubt)
Reply text: ≥ 75%

Inquiry: Which inhibition at 0.1 µM is reported for this compound? Cc1c(C#CCCCCCn2nc(C)c3ccc(C(=O)Nc4cc5[nH]c([C@H]6CCCN6C)cc5cn4)cc32)cccc1C(=O)NC1CCC(=O)NC1=O (stereo partly shown)
Reply text: < 25%

Inquiry: Which inhibition at 0.1 µM is reported for this compound? Cc1nn(C2CCN(CC3CCN(c4ccc5c(c4)C(=O)N(C4CCC(=O)NC4=O)C5=O)CC3)CC2)c2cc(C(=O)Nc3cc4[nH]c([C@H]5CCCN5C)cc4cn3)ccc12 (stereo partly shown)
Reply text: ≥ 75%

Inquiry: Which inhibition at 0.1 µM is reported for this compound? Cc1nn(CCCCCCCC#Cc2cc3c(cc2F)c(N2CCC(=O)NC2=O)nn3C)c2cc(C(=O)Nc3cc4[nH]c([C@H]5CCCN5C)cc4cn3)ccc12
Reply text: 50 to 75%

Inquiry: Which inhibition at 0.1 µM is reported for this compound? Cc1nn(CCCCCCCC#Cc2ccc(F)c3c2CN(C2CCC(=O)NC2=O)C3=O)c2cc(C(=O)Nc3cc4[nH]c([C@H]5CCCN5C)c(Cl)c4cn3)ccc12 (stereo partly shown)
Reply text: ≥ 75%

Inquiry: Which inhibition at 0.1 µM is reported for this compound? Cc1nn(C2CCN(CC3CCN(c4cccc5c4C(=O)N(C4CCC(=O)NC4=O)C5=O)CC3)CC2)c2cc(C(=O)Nc3cc4[nH]c([C@H]5CCCN5C)cc4cn3)ccc12 (stereo partly shown)
Reply text: ≥ 75%

Inquiry: Which inhibition at 0.1 µM is reported for this compound? Cc1nn(CCCCCCNc2cccc3c2C(=O)N(C2CCC(=O)NC2=O)C3=O)c2cc(C(=O)Nc3cc4[nH]c([C@H]5CCCN5C)cc4cn3)ccc12 (stereo partly shown)
Reply text: ≥ 75%

Inquiry: Which inhibition at 0.1 µM is reported for this compound? Cc1nn(CCCCCCCC#Cc2ccc3c(c2)n(C)c(=O)n3C2CCC(=O)NC2=O)c2cc(C(=O)Nc3cc4[nH]c([C@H]5CCCN5C)cc4cn3)ccc12 (stereo partly shown)
Reply text: ≥ 75%

Inquiry: Which inhibition at 0.1 µM is reported for this compound? Cc1nn(CCCCN2CCN(c3ccc4c(c3)C(=O)N(C3CCC(=O)NC3=O)C4=O)CC2)c2cc(C(=O)Nc3cc4[nH]c([C@@H]5CCCN5C)cc4cn3)ccc12 (stereo partly shown)
Reply text: 25 to 50%
